System: COLO 205 colon
METHOD: NCI-60 one-dose screen, 48 h
CONDITION NOTES: 10 µM
This is part of a sample that, as a whole, favours compounds with a hit. Of some 83,000 tested, about 20% had one in any assay. The source made the active and inactive calls. Rule for the calls: active = growth percent below 10; inactive = the rest.
Give one outcome, nothing more. List: active, inactive

q: Can you look up the reported call for C[C@]12CCc3sc(-c4ccc(Cl)cc4)nc3C1=CC[C@@H]1[C@@H]2CC[C@]2(C)C(=O)CC[C@@H]12 for me?
a: inactive

q: Can you look up the reported call for CC(C)N=C(NC(C)C)N1CC1 for me?
a: inactive

q: Can you look up the reported call for NCCc1cc(O)c(O)cc1O for me?
a: inactive

q: Can you look up the reported call for NC(=O)C(Br)CBr (stereo not given) for me?
a: active

q: Can you look up the reported call for CNC(=O)Oc1cccc(N(C)C)c1 for me?
a: inactive

q: Can you look up the reported call for CNC(=O)Oc1cccc(OC)c1 for me?
a: inactive

q: Can you look up the reported call for CC12CCC(=O)C=C1CCC1C2CCC2(C)C(C(=O)COC(=O)Cc3ccc(N(CCCl)CCCl)cc3)CCC12 (stereo not given) for me?
a: inactive

q: Can you look up the reported call for CO[C@@H]([CH2][Hg][S]C#N)[C@@H]([CH2][Hg][S]C#N)OC for me?
a: inactive

q: Can you look up the reported call for Cc1cc(NC(=O)CCc2ccc(N3C(N)=NC(N)=NC3(C)C)cc2)ccc1S(=O)(=O)F for me?
a: inactive

q: Can you look up the reported call for CCC(/C=C(C)/C=C/C(=O)c1c(O)c(-c2ccc(O)cc2)c[nH]c1=O)CO (stereo not given) for me?
a: inactive

q: Can you look up the reported call for O=S(=O)(c1ccc(Cl)cc1)C(Cl)(Cl)Cl for me?
a: inactive

q: Can you look up the reported call for C=CCc1ccc(OC(=O)Cc2ccccc2)c(OC)c1 for me?
a: inactive

q: Can you look up the reported call for CCOC(=O)/C(C#N)=C/c1ccc(N(CCCl)CCCl)cc1 for me?
a: inactive

q: Can you look up the reported call for CNC(=O)Oc1ccccc1-c1ccccc1 for me?
a: inactive

q: Can you look up the reported call for NC(=O)OCC(CO)(c1ccccc1)c1ccccc1 for me?
a: inactive

====

System: A498 renal
METHOD: NCI-60 one-dose screen, 48 h (100 = growth as untreated, 0 = no growth, -100 = all killed)
CONDITION NOTES: 10 µM unless noted
Compounds without any hit were thinned out: in the full panel of roughly 83,000, 20% have a hit.
Would you mind telling me the reported growth of each entry?
The response must be a number in % with no trailing unit.

q: Requested field: growth. Item: Cc1cccc(N=C2c3cc([N+](=O)[O-])ccc3-c3c2cc([N+](=O)[O-])cc3[N+](=O)[O-])c1
a: 74.5

q: Requested field: growth. Item: COC1=CC(=O)OC(CCc2ccc3c(c2)OCO3)C1 (stereo not given)
a: 101

q: Requested field: growth. Item: CC1(C)N=C(N)N=C(N)N1c1ccc(CNC(=O)Nc2ccc(S(=O)(=O)F)c(Cl)c2)c(Cl)c1
a: 61.3

q: Requested field: growth. Item: C#CC1(O)CCC2(C)C(CCC3C4CCC(=O)C4(C)CCC32)C1 (stereo not given)
a: 98.2

q: Requested field: growth. Item: O=C(O)c1nn(Cc2ccc(Cl)cc2)c2ccccc12
a: 96.5

q: Requested field: growth. Item: O=C(CC1(O)C(=O)Nc2ccc(F)cc21)c1ccc(C(=O)NCC2CCC3(CC2)OOC2(CCCCC2)OO3)cc1 (stereo not given)
a: 65

q: Requested field: growth. Item: C/C(=N/OC(=O)N(C)C)c1cc(Cl)ccc1Cl
a: 86.8

q: Requested field: growth. Item: Cc1cc(NC(=O)/C=C/c2ccc([N+](=O)[O-])cc2)ccc1S(=O)(=O)F
a: 98.7

q: Requested field: growth. Item: CC1(C)N=C(N)N=C(N)N1c1ccc(CCCCc2ccc(S(=O)(=O)F)cc2)cc1
a: 42.3

q: Requested field: growth. Item: CC(=O)[O][Hg][CH2]C1(C)COC(C)([CH2][Hg][O]C(C)=O)CO1 (stereo not given)
a: 75.8
